target: Aldehyde dehydrogenase 1A1 (Homo sapiens); assay: qHTS for Inhibitors of the Aldehyde Dehydrogenase Family (ALDH1A1) Confirmatory screens (AID 2061316); details: ALDH inhibition qHTS; series mostly up to 47.3 µM; further: nearly all actives have a fitted effect of over 65% in size
Inconclusive results are not listed. Active and inactive are the calls of the source. The call rests on the fitted dose curve; in most records, active means well fitted inhibition curve with a large enough effect; inconclusive means small, poorly fitted or top-dose-only effect; inactive means no such curve, though single readings can be large or run the other way.
Result category, one only: yes for active, no for inactive

Give the logged outcome of this assay for the following compound: C[N+](C)(C)CCOC(=O)CCC(=O)OCC[N+](C)(C)C
no

Give the logged outcome of this assay for the following compound: O=C1CC(c2ccccc2)CC2=C1C1(CCCC1)N=C(Nc1nc3ccccc3o1)N2 (centres undefined)
no

Give the logged outcome of this assay for the following compound: COc1cc(/C=C/C(=O)OC[C@H]2O[C@H](O[C@]3(CO)O[C@H](CO)[C@@H](O)[C@@H]3O)[C@H](O)[C@@H](O)[C@@H]2O)cc(OC)c1O
no

Give the logged outcome of this assay for the following compound: COc1ccc([N+](=O)[O-])c(S(=O)(=O)c2ccccc2)n1
yes

Give the logged outcome of this assay for the following compound: Cc1ccc(OCCn2c(CCNC(=O)c3cccs3)nc3ccccc32)cc1
yes

Give the logged outcome of this assay for the following compound: CCOC(=O)c1cccc(-n2cnc(/C=C3\NC(=O)N(CC(=O)O)C3=O)c2)c1
no

Give the logged outcome of this assay for the following compound: C=C1CC[C@@H]2[C@](C)(CO)[C@H](O)CC[C@@]2(C)[C@@H]1CC(=O)C1=CCOC1=O
no

Give the logged outcome of this assay for the following compound: COc1ccc(N2CCN(c3nc(C(=O)NCc4cccc(C)c4)cs3)CC2)cc1
no

Give the logged outcome of this assay for the following compound: CCN(CC)CCOCCOC(=O)C(CC)(CC)c1ccccc1
no
